- subject.of.test: JAK3 enzyme (Homo sapiens (Human), UniProt P52333)
- Sequence (P52333 whole entry, species assumed): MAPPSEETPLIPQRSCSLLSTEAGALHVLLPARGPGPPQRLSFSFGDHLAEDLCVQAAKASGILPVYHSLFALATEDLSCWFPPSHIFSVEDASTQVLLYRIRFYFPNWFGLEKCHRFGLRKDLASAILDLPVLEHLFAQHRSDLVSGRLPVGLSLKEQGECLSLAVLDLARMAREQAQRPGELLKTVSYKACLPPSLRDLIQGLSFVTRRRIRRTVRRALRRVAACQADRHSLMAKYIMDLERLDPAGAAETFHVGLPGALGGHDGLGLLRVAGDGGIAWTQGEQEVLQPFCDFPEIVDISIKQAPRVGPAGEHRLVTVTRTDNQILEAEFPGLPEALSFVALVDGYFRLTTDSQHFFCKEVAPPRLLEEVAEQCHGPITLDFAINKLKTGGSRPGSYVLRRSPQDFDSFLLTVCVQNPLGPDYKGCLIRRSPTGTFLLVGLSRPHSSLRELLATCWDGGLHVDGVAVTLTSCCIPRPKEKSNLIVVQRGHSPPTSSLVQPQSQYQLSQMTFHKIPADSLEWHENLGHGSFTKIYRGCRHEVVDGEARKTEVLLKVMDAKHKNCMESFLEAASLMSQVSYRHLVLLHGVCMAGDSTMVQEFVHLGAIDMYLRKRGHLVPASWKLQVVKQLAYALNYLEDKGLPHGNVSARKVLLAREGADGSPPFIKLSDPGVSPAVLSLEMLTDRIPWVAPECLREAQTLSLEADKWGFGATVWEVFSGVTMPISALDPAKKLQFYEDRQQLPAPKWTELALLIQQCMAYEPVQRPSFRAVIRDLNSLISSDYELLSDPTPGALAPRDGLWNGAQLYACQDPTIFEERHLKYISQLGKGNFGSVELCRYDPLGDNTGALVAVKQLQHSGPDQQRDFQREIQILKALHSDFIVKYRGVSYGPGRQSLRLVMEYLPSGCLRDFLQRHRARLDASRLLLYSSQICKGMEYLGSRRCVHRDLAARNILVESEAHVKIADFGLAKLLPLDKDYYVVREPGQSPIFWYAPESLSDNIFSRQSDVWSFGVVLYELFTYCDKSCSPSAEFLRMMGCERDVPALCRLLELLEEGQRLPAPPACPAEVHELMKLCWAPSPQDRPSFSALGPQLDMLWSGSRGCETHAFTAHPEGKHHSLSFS
- experiment.description: JAK Caliper Enzyme Assay at 4 μM or 1 mM ATP
- Assay type: biochemical
- experimental.setup: read-out: JAK3 (1 mM ATP) IC50; 1 mM ATP
Readings of IC50 for the listed compounds

- molecule.smiles: "C=CC(=O)N1CCC(Nc2cnc3[nH]cc(C(=O)N[C@@H](C(C)C)[C@H](O)C(F)(F)F)c3n2)CC1"
  IC50: "37.2 nM"
- molecule.smiles: "C=CC(=O)N1CCC[C@@H](Nc2ncnc3[nH]cc(CC(C)(C)O)c23)C1"
  IC50: "192 nM"
- molecule.smiles: "C=CC(=O)N1CCC(Nc2cnc3[nH]cc(-c4cncc(F)c4)c3n2)CC1"
  IC50: "16 nM"
- molecule.smiles: "C=CC(=O)N1CC[C@@H](Nc2cnc3[nH]cc(C(=O)NC(C)C)c3n2)[C@H](O)C1"
  IC50: "30.6 nM"
- molecule.smiles: "C=CC(=O)N1CCN(c2cnc3[nH]cc(C(=O)NC(C)C)c3n2)C[C@@H]1CC"
  IC50: "55.6 nM"
- molecule.smiles: "C=CC(=O)N1CCC(Nc2cnc3[nH]cc(C(=O)NC4CC(F)(F)C4)c3n2)CC1"
  IC50: "17.9 nM"
- molecule.smiles: "C=CC(=O)N1CC[C@@H](Nc2cnc3[nH]cc(C(=O)NC(C)C)c3n2)[C@@H](F)C1"
  IC50: "10.7 nM"
- molecule.smiles: "C=CC(=O)N1CCN(c2cnc3[nH]cc(C(=O)NC(C)C)c3n2)[C@H](C2CC2)C1"
  IC50: "814 nM"
- molecule.smiles: "C=CC(=O)N1CCC(Nc2cnc3[nH]cc(-c4ccnc(F)c4)c3n2)CC1"
  IC50: "34.2 nM"
- molecule.smiles: "C=CC(=O)N1CCC(Oc2cnc3[nH]cc(-c4cncnc4)c3n2)CC1"
  IC50: "386 nM"
- molecule.smiles: "C=CC(=O)N1C[C@H](Nc2ncnc3[nH]ccc23)C[C@@H](OC)C1"
  IC50: "2070 nM"
- molecule.smiles: "C=C(F)C(=O)N1CCC[C@@H](Nc2ncnc3[nH]ccc23)C1"
  IC50: "4650 nM"
- molecule.smiles: "C=CC(=O)N1CCC[C@@H](Nc2ncnc3[nH]cc(CC#N)c23)C1"
  IC50: "76.5 nM"
- molecule.smiles: "C=CC(=O)N1CCC(Oc2cnc3[nH]cc(C(=O)NC(C)C)c3n2)CC1"
  IC50: "17.5 nM"
- molecule.smiles: "C=CC(=O)N1CCC(Oc2cnc3[nH]cc(-c4ccnc(C)c4)c3n2)CC1"
  IC50: "70.4 nM"
- molecule.smiles: "C=CC(=O)N1C[C@H](Nc2ccnc3[nH]cc(C#N)c23)CC[C@@H]1C"
  IC50: "22.7 nM"
- molecule.smiles: "C=CC(=O)N[C@H]1C[C@H](Nc2cnc3[nH]cc(C(=O)NC(C)C)c3n2)C1"
  IC50: "77.6 nM"
